The origin of these recorded values is paper PMC5700043.

measurement.target: human indoleamine 2,3-dioxygenase 1 (hIDO1) (Homo sapiens, UniProt P14902, F270G)
Sequence (P14902 11-403 F270G): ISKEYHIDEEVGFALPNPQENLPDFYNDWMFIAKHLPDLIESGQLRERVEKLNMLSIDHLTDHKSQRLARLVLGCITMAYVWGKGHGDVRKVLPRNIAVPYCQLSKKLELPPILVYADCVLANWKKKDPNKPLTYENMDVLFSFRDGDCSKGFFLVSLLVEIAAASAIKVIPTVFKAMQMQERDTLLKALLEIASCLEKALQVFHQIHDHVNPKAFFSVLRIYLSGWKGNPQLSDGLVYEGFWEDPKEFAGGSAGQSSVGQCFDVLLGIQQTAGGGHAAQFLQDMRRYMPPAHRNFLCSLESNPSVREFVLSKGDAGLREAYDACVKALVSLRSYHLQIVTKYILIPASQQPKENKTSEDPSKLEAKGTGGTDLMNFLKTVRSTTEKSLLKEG
test.method.notes: X-ray crystal structure ([…] Å); activity titration (inhibition)
pKd: −log10 of the molar value.
endpoint.label: pKd

Query: Given the entry OCCc1c[nH]c2ccccc12 [IDE, 3-indole ethanol] , what pKd was observed with human indoleamine 2,3-dioxygenase 1 (hIDO1) (Homo sapiens, UniProt P14902, F270G)?
Response: ~4.00
